Every entry's value here was drawn from the supplement of paper PMC12669797.

Tested on: ES2
Test: cell viability relative to DMSO control (MTS) (fraction of DMSO control); higher = more viable cells / less growth inhibition
Conditions: 10 µM; 48 h
# strict inequality: cell viability < 0.9 yields true, everything else yields false

INSERT INTO results (chemical_structure, label) VALUES
  ('CNC(=O)c1cc(Oc2ccc(NC(=O)Nc3ccc(Cl)c(C(F)(F)F)c3)cc2)ccn1', 'true'),
  ('CCCCCCCCCCCCCCOc1ccc(C(=O)O)o1', 'false'),
  ('O=C(c1cc(Cc2n[nH]c(=O)c3ccccc23)ccc1F)N1CCN(C(=O)C2CC2)CC1', 'true'),
  ('COc1cc2ncc(-c3ccccc3)nc2cc1OC', 'true'),
  ('COC(=O)C[C@H](NC(=O)[C@H](C)NC(=O)[C@@H](NC(=O)OCc1ccccc1)C(C)C)C(=O)CF', 'false');

====

Test system: TOV-21G
Assay: cell viability relative to DMSO control (MTS) (fraction of DMSO control); higher = more viable cells / less growth inhibition
Conditions: 10 µM; 48 h
measurement_type: cell viability

INSERT INTO results (compound, measurement_type, value_reported) VALUES
  ('COc1cc(Nc2ncc3c(n2)-c2ccc(Cl)cc2C(c2c(F)cccc2OC)=NC3)ccc1C(=O)O', 'cell viability', 0.619),
  ('C1=Cc2nc1cc1nc(c(-c3ccccc3)c3ccc(cc4ccc([nH]4)c2-c2ccccc2)[nH]3)C=C1', 'cell viability', 1.19),
  ('CCOC(=O)C1=C(N)Oc2ccc(Br)cc2C1C(C#N)C(=O)OCC (centres undefined)', 'cell viability', 0.998),
  ('NC(=O)c1cccc2cn(-c3ccc([C@@H]4CCCNC4)cc3)nc12', 'cell viability', 0.783),
  ('NC(=O)c1ccc2nc(-c3ccc(Oc4ccc(Cl)cc4)cc3)[nH]c2c1', 'cell viability', 1.1),
  ('COC(=O)c1ccc(NCc2cc(O)ccc2O)cc1', 'cell viability', 1.06),
  ('COc1cc2nccc(Oc3ccc(NC(=S)NC(=O)c4ccccc4C)cc3)c2cc1OC', 'cell viability', 0.525),
  ('CN(C)CC(=O)Nc1ccc2[nH]c(=O)c3ccccc3c2c1', 'cell viability', 0.882),
  ('Nc1nc2c(nc(Sc3ccc(Cl)cc3)n2C2O[C@@H]3CO[P+](O)(S)OC3[C@@H]2O)c(=O)[nH]1 (some centres undefined)', 'cell viability', 0.856);

====

Tested on: TOV-21G
Assay: cell viability relative to DMSO control (MTS) (fraction of DMSO control); higher = more viable cells / less growth inhibition
Details: 10 µM; 48 h
Reported cell viability values follow for various compounds
measurement_type: cell viability

INSERT INTO assay_data (compound, experimental_target, measurement_type, value_reported) VALUES
  ('Clc1ccccc1CNCC1CCC(CNCc2ccccc2Cl)CC1 (centres undefined)', 'TOV-21G', 'cell viability', 1.03),
  ('CC1(C)CCC(C)(C)c2cc(NC(=O)c3ccc(C(=O)O)cc3)ccc21 [tamibarotene]', 'TOV-21G', 'cell viability', 1.49),
  ('O=C1Cc2c([nH]c3ccc(Br)cc23)-c2ccccc2N1 [Kenpaullone]', 'TOV-21G', 'cell viability', 0.468),
  ('C=CC[C@@H]1/C=C(\C)C[C@H](C)C[C@H](OC)[C@H]2O[C@@](O)(C(=O)C(=O)N3CCCC[C@H]3C(=O)O[C@H](/C(C)=C/[C@@H]3CC[C@@H](O)[C@H](OC)C3)[C@H](C)[C@@H](O)CC1=O)[C@H](C)C[C@@H]2OC', 'TOV-21G', 'cell viability', 0.964);
